List of pIC50 values.
molecular target: Ustilago maydis acetyl CoA carboxylase (ACCase) (Ustilago maydis); assay: ACCase enzymatic assay (PK/LDH-coupled, NADH OD340); format: biochemical; conditions: Table 1B; racemates and single enantiomers; read-out: ACCase Inhibitory Activity of Racemic Mixtures and Single Enantiomers IC50
Sequence (A0A0D1DYD5 1-2185): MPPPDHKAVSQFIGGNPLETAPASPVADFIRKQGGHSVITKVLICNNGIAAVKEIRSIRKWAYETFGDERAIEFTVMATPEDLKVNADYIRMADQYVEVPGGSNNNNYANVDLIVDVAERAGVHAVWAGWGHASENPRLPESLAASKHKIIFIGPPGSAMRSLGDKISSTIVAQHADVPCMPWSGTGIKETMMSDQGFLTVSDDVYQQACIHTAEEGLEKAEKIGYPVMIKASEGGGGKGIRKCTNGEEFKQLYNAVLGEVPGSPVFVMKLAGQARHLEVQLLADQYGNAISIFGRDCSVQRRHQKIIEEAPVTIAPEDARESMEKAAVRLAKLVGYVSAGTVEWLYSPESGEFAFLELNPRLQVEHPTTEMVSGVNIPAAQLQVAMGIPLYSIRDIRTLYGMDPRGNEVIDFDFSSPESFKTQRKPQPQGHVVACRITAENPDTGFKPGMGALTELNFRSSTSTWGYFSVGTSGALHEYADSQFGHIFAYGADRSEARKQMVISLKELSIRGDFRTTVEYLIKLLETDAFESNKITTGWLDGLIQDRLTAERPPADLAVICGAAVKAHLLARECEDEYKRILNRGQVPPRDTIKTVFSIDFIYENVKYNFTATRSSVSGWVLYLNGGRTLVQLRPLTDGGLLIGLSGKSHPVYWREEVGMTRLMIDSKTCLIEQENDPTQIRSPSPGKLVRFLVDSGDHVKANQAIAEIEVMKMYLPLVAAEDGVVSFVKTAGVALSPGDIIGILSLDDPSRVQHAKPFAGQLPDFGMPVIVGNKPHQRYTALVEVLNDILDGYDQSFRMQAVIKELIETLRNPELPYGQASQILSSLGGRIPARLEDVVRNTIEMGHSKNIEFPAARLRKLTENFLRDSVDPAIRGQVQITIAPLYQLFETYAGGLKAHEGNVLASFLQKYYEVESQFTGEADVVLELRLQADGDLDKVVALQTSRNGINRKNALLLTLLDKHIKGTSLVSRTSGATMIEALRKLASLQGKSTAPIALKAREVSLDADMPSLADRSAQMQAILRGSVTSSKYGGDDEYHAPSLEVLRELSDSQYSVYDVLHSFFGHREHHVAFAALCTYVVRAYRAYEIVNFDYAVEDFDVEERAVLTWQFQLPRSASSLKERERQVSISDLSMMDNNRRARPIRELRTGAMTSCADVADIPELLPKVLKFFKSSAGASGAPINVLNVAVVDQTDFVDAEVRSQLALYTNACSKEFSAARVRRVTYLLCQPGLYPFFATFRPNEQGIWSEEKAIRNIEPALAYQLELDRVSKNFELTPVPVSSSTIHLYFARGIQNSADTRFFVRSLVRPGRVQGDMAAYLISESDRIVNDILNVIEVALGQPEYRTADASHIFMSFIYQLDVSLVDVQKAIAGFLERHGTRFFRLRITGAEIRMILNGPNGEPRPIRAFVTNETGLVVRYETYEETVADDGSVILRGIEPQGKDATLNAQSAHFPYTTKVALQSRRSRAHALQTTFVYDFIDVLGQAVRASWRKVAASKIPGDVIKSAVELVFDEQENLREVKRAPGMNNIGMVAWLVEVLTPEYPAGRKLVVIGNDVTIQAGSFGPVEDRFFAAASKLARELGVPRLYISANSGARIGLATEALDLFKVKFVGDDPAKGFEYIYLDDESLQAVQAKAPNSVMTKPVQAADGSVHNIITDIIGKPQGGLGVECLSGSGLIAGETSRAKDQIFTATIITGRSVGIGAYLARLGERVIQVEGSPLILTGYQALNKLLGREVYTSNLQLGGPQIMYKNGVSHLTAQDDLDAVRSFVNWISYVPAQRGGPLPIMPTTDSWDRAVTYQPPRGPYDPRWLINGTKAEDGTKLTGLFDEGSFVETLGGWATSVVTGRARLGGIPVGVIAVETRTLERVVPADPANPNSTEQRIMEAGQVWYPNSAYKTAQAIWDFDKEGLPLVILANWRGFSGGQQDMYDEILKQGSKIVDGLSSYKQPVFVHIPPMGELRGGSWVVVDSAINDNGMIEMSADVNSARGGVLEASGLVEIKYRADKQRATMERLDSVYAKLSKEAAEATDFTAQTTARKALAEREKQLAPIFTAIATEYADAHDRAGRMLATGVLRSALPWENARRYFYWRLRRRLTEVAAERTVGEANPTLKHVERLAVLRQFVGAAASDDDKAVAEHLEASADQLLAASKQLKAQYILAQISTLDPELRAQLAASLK
On this scale, pIC50 is minus log10 of a concentration expressed in M (mol/L).

INSERT INTO measurements (compound, observation_type, experimental_value) VALUES
  ('N#Cc1c(C(F)(F)F)cc(-c2cccs2)nc1S[C@H](C(=O)O)c1ccccc1 (single isomer, unassigned) [Formula Ia-ii-e2]', 'pIC50', 5.92);

// query Suppose we examine the compound N#Cc1c(-c2cccs2)cc(-c2cccs2)nc1SC(C(=O)O)c1ccccc1 (racemic) ; what pIC50 value has been reported?
// result 6.36

The origin of these recorded values is patent US11375716B2.
